molecular target: heparanase (Homo sapiens, UniProt Q9Y251); test: Heparanase inhibition (IC50); assay type: biochemical; conditions: read-out: Heparanase inhibition IC50
Sequence (Q9Y251 158-543 limits assumed, species assumed): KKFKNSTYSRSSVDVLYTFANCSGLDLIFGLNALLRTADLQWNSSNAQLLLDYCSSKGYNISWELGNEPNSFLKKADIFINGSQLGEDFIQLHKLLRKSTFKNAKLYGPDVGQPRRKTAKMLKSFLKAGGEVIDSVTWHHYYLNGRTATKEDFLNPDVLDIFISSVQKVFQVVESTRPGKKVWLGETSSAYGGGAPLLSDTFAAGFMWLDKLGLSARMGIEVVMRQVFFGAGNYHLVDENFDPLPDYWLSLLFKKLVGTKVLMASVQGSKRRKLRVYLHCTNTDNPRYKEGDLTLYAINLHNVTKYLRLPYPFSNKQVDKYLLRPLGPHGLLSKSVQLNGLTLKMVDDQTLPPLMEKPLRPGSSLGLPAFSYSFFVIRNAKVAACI
Sequence (Q9Y251 36-109 limits assumed, species assumed): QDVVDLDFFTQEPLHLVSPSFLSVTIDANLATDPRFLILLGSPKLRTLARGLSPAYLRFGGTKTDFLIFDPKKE
OUTCOME_MEASURE: IC50 (µM)

Example entries begin here.
The value of IC50 measured for the compound COc1cc2[nH]c(=S)n(CCNC(=O)c3cccc(-c4ccc5nonc5c4)n3)c(=N)c2cc1OC [BT2117] turned out to be 12.5

The value of IC50 measured for the compound COc1cc2nc(SC)n(C3CN(C(=O)c4cc5ccc(-c6cccnc6)cc5[nH]4)C3)c(=N)c2cc1OC [BT2141] turned out to be 23.6

The value of IC50 measured for the compound COc1cc2[nH]c(=S)n(CCc3cn(C)c4ccccc34)c(=N)c2cc1OC [BT2024] turned out to be 27.4

The value of IC50 measured for the compound COc1cc2[nH]c(=S)n(CCc3c[nH]c4ccc(-c5cccnc5)cc34)c(=N)c2cc1OC [BT2055] turned out to be 19.1

The value of IC50 measured for the compound COc1cc2[nH]c(=S)n(CCc3c[nH]c4ccccc34)c(=N)c2cc1OC [BT2044] turned out to be 30

(A) COc1cc2[nH]c(=S)n(C3CN(C(=O)c4cc5cc(-c6cccnc6)ccc5[nH]4)C3)c(=N)c2cc1OC [BT2085]
(B) COc1cc2[nH]c(=S)n(CCNC(=O)c3cccc(-c4ccccc4)n3)c(=N)c2cc1OC [BT2115]
(C) COc1cc2[nH]c(=S)n(CCNC(=O)c3cc4ccc(-c5ccc(N6CCN(C)CC6)nc5)cc4[nH]3)c(=N)c2cc1OC [BT2076]
Problem: Give the ascending ranking of the items by reported IC50. State the ranking by listing the labels in the requested order.
Solution: A, C, B
(A: 1.3 µM, C: 12.4 µM, B: 19.7 µM)

(A) COc1cc2[nH]c(=S)n(CCNC(=O)c3cc4ccc(-c5ccc(C(=O)N6CCN(C)CC6)cc5)cc4[nH]3)c(=N)c2cc1OC [BT2073]
(B) COc1cc2nc(SCc3ccc(C(F)(F)F)cc3)n(C3CN(C(=O)c4cc5ccc(-c6cccnc6)cc5[nH]4)C3)c(=N)c2cc1OC [BT2139]
(C) COc1cc2nc(SCc3ccc(OC(F)(F)F)cc3)n(C3CN(C(=O)c4cc5ccc(-c6cccnc6)cc5[nH]4)C3)c(=N)c2cc1OC [BT2142]
(D) COc1cc2nc(SCc3ccc(OC(F)(F)F)cc3)n(C3CN(C(=O)c4cc5ccc(-c6cccnc6)cc5[nH]4)C3)c(=N)c2cc1OC [BT2145]
Problem: # sort list by recorded IC50, greatest to least State the ranking by listing the labels in the requested order.
Solution: A, D, B, C
(A: 51 µM, D: 22 µM, B: 13 µM, C: 7 µM)

###

target: heparanase (Homo sapiens); test: Heparanase inhibition (IC50); type: biochemical; conditions: Heparanase inhibition IC50
OUTCOME_MEASURE: IC50 (µM)
Return type: number; implicit unit µM.

The value of IC50 measured for the compound "COc1cc2[nH]c(=S)n(CCn3cc(C(=O)NCCN4CCOCC4)c4ccccc43)c(=N)c2cc1OC" turned out to be 44.8

###

biological target: heparanase (Homo sapiens, UniProt Q9Y251); assay: Heparanase inhibition (IC50); assay type: biochemical; conditions: read-out: Heparanase inhibition IC50
pIC50: −log10 of the molar value.
OUTCOME_MEASURE: pIC50

Example entries begin here.
The value of pIC50 measured for the compound COc1cc2[nH]c(=S)n(CCc3c[nH]c4ccccc34)c(=N)c2cc1OC [BT2012] turned out to be 4.83

The value of pIC50 measured for the compound COc1cc2[nH]c(=S)n(CCNC(=O)c3cc4cc(-c5cnn(C)c5)ccc4[nH]3)c(=N)c2cc1OC [BT2078] turned out to be 4.46

The value of pIC50 measured for the compound COc1cc2[nH]c(=S)n(CCNC(=O)c3cc4cc(C(=O)N5CCOCC5)ccc4[nH]3)c(=N)c2cc1OC [BT2082] turned out to be 4.46

The value of pIC50 measured for the compound COc1cc2[nH]c(=S)n(CCNC(=O)c3nnc(-c4ccccc4)o3)c(=N)c2cc1OC [BT2144] turned out to be 4.22

The value of pIC50 measured for the compound COc1ccc2[nH]c(=S)n(CCc3c[nH]c4ccccc34)c(=N)c2c1 [BT2014] turned out to be 4.31

(a) COc1cc2[nH]c(=S)n(CCNC(=O)c3ccc(-c4ccccc4)nc3)c(=N)c2cc1OC [BT2125]
(b) COc1cc2nc(SCc3ccc(C(F)(F)F)cc3)n(C3CN(C(=O)c4cc5ccc(-c6cccnc6)cc5[nH]4)C3)c(=N)c2cc1OC [BT2140]
(c) COc1cc2[nH]c(=O)n(CCNC(=O)c3cc4cc(C(=O)N5CCOCC5)ccc4[nH]3)c(=N)c2cc1OC [BT2081]
(d) COc1ccc2[nH]cc(CCn3c(=S)[nH]c4cc(OC)c(OC)cc4c3=N)c2c1 [BT2046]
Problem: # sort list by recorded pIC50, greatest to least State the ranking by listing the labels in the requested order.
Solution: d, a, b, c

(I) COc1cc2[nH]c(=O)n(CCNC(=O)c3cc4cc(C(=O)N5CCC5)ccc4[nH]3)c(=N)c2cc1OC [BT2080]
(II) COc1ccc(OC)c(Cn2c(=S)[nH]c3cc(OC)c(OC)cc3c2=N)c1 [BT2022]
(III) COc1cc2[nH]c(=S)n(CCNC(=O)c3cc4cc(-c5ccc(N6CCN(C)CC6)nc5)ccc4[nH]3)c(=N)c2cc1OC [BT2075]
Problem: # sort list by recorded pIC50, greatest to least State the ranking by listing the labels in the requested order.
Solution: III, II, I
(III: 4.69, II: 4.43, I: 4.04)

(P) COc1cc2[nH]c(=S)n(CCNC(=O)c3nnc(-c4ccccc4)o3)c(=N)c2cc1OC [BT2132]
(Q) COc1cc2nc(SC)n(C3CN(C(=O)c4cc5ccc(-c6cccnc6)cc5[nH]4)C3)c(=N)c2cc1OC [BT2143]
Problem: Could you determine which record has the numerically smaller pIC50? Candidates: P and Q Give the label under which the chosen entry appears.
Solution: P
(P: 4.23, Q: 4.48)

(a) COc1ccc(Cn2c(=S)[nH]c3cc(OC)c(OC)cc3c2=N)c(OC)c1 [BT2027]
(b) COc1cc2nc(SCc3ccccc3)n(CCNC(=O)c3cc4ccccc4[nH]3)c(=N)c2cc1OC [BT2135]
Problem: Could you determine which record has the numerically smaller pIC50? Candidates: a and b Give the label under which the chosen entry appears.
Solution: b
(b: 4.19, a: 4.40)

Hello, the source for this data is patent US11787783B2, in case you need it.
